Biological target: human Nav1.8 (Homo sapiens, UniProt Q9Y5Y9)
Construct: expressed in transfected cells; host or cells: HEK293 (HEK293-Nav1.8)
Sequence (Q9Y5Y9 whole entry): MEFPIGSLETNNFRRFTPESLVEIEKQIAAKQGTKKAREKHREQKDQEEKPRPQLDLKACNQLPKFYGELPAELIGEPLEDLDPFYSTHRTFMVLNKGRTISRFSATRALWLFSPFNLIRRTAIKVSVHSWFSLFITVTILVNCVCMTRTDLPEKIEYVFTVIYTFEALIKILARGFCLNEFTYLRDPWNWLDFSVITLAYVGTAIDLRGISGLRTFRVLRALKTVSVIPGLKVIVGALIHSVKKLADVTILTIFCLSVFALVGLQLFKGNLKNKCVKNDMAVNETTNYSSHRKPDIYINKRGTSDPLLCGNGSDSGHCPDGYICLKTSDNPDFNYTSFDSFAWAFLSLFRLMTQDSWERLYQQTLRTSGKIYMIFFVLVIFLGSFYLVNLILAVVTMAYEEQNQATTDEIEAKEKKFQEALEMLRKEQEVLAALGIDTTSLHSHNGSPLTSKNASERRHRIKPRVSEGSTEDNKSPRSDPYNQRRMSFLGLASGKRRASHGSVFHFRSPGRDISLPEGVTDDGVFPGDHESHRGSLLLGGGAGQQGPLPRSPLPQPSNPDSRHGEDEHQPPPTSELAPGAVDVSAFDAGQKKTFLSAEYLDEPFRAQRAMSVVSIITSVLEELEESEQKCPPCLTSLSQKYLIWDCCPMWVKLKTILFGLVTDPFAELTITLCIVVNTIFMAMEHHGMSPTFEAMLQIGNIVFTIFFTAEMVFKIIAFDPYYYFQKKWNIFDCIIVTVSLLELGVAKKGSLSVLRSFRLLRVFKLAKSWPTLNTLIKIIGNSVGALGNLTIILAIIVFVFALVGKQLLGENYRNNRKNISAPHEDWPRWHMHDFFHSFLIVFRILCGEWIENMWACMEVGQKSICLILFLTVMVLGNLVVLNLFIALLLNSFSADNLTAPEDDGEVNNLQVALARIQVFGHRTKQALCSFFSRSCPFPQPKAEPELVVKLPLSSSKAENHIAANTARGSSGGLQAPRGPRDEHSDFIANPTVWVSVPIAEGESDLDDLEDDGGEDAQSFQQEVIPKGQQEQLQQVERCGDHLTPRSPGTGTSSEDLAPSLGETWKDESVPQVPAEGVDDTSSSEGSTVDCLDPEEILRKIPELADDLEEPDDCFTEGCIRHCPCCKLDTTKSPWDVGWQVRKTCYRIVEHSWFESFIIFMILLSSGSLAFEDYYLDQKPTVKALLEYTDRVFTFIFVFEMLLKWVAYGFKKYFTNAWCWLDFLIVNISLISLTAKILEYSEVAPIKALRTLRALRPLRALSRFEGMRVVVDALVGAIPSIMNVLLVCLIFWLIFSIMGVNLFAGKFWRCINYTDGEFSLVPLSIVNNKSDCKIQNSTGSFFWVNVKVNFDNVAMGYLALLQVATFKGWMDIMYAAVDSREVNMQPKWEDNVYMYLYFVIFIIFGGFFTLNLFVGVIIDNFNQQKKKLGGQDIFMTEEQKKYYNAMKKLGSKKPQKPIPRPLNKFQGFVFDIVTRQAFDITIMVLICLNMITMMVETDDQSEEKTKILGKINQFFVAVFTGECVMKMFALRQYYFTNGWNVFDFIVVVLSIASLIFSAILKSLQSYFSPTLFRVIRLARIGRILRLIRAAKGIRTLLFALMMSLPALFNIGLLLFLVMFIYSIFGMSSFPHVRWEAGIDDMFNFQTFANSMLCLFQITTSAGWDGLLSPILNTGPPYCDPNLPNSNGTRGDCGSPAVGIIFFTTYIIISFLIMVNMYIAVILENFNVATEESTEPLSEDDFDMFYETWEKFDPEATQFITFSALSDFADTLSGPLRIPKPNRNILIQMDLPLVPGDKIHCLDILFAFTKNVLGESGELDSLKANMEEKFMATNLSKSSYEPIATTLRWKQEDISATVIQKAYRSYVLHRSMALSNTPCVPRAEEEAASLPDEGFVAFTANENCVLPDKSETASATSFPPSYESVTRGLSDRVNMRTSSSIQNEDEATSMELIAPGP
Sequence (Q07699 19-218 partner): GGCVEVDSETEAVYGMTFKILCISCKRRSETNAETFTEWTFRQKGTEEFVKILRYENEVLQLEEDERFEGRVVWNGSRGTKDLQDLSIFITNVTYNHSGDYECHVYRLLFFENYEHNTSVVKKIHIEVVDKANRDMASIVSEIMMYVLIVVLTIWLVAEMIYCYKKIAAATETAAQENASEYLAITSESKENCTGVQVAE
Experiment: Nav1.8 sodium channels assay, QPatch 48 HTX electrophysiology in HEK293-Nav1.8 cells
Type: cell-based
Conditions: at least one set of experimental runs; read-out: average pIC50 value against Nav1.8 (converted)
Here the recorded IC50 is given for each entry.

Some solved entries appear below for comparison.
{"Compound": "Cc1ccc(F)cc1N1CN(c2ccc(=O)[nH]c2C)C(=O)c2cc(C(F)(F)F)ccc21", "IC50": "126 to 631 nM"}
{"Compound": "Cc1[nH]c(=O)ccc1N1CN(c2ccc(F)cc2C(C)(C)C)c2cc(C(F)(F)F)ccc2C1=O [Example 114]", "IC50": "≤ 100 nM"}
{"Compound": "CC(=O)Nc1cccc(N2CN(c3ccc(F)cc3C)c3cc(C(F)(F)F)ccc3C2=O)c1", "IC50": "794 to 7940 nM"}
{"Compound": "Cc1cc(F)ccc1N1CN(c2ccc(=O)[nH]c2C)C(=O)c2cc(Cl)c(C#N)nc21", "IC50": "≤ 100 nM"}

Input: Recorded IC50 of Cc1cc(F)ccc1N1CN(c2cccc(S(C)(=O)=O)c2)C(=O)c2ccc(C(F)(F)F)cc21 , please.
Output: 794 to 7940 nM

Input: Recorded IC50 of Cc1cc(F)ccc1N1CN([C@H]2CCC(=O)N[C@H]2C)C(=O)c2ccc(C(F)(F)F)cc21 , please.
Output: 794 to 7940 nM

Input: Recorded IC50 of Cc1cc(OC(F)(F)F)ccc1N1CN(c2ccc(=O)[nH]c2)C(=O)c2cc(C(F)(F)F)ccc21 , please.
Output: ≤ 100 nM

Input: Recorded IC50 of Cc1cc(F)ccc1N1CN(c2ccc(=O)[nH]n2)C(=O)c2ccc(C(F)(F)F)cc21 , please.
Output: 794 to 7940 nM

Input: Recorded IC50 of Cc1cc(F)ccc1N1CN(c2ccc(=O)[nH]c2C)C(=O)c2cc(C(F)(F)F)cnc21 , please.
Output: 126 to 631 nM

Input: Recorded IC50 of Cc1cc(F)ccc1N1CN(c2ccc(=O)[nH]c2C)C(=O)c2ccc(OCC(F)(F)F)cc21 , please.
Output: ≤ 100 nM

Input: Recorded IC50 of Cc1cc(F)ccc1N1CN(c2ccc(=O)[nH]c2C)C(=O)c2cc(F)c(C(F)F)cc21 , please.
Output: ≤ 100 nM

Input: Recorded IC50 of Cc1cnccc1N1CN(c2ccc(OC(F)(F)F)cc2C)c2cc(F)c(Cl)cc2C1=O , please.
Output: 126 to 631 nM

Input: Recorded IC50 of O=C1c2ccc(C(F)(F)F)cc2N(c2ccc(F)cc2Cl)CN1c1ccc(=O)[nH]c1 , please.
Output: 126 to 631 nM

Input: Recorded IC50 of CCc1cc(F)ccc1N1CN(c2ccc(=O)[nH]c2C)C(=O)c2cc(Cl)c(C#N)cc21 , please.
Output: ≤ 100 nM

Input: Recorded IC50 of Cc1cc(F)ccc1N1CN(c2ccc(=O)[nH]c2C)C(=O)c2cc(OC(F)(F)F)ccc21 , please.
Output: ≤ 100 nM

Input: Recorded IC50 of Cc1cc(F)ccc1N1CN(c2ccc(=O)[nH]c2C)C(=O)c2ccc(OC(F)F)cc21 , please.
Output: ≤ 100 nM

Input: Recorded IC50 of Cc1cc(F)ccc1N1CN(c2c(Cl)cc(=O)[nH]c2C)C(=O)c2cc(Cl)ccc21 , please.
Output: 794 to 7940 nM

Input: Recorded IC50 of Cc1cc(F)ccc1N1CN(c2ccc(S(C)(=O)=O)cc2)C(=O)c2ccc(C(F)(F)F)cc21 , please.
Output: 794 to 7940 nM

Input: Recorded IC50 of Cc1cc(F)ccc1N1CN(c2ccc(=O)[nH]c2C)Cc2cc(C(F)(F)F)ccc21 , please.
Output: 126 to 631 nM

Input: Recorded IC50 of Cc1[nH]c(=O)ccc1N1CN([C@H]2CCCC[C@@H]2C)c2cc(C(F)(F)F)ccc2C1=O , please.
Output: ≤ 100 nM

Input: Recorded IC50 of Cc1cc(F)ccc1N1CN(c2ccc(=O)[nH]c2C)C(=O)c2cc(C#N)c(C(F)(F)F)cc21 , please.
Output: ≤ 100 nM

Input: Recorded IC50 of Cc1cc(F)ccc1N1CN(c2ccc(=O)[nH]c2Cl)C(=O)c2cc(C(F)(F)F)ccc21 , please.
Output: 126 to 631 nM

Input: Recorded IC50 of CCc1cc(F)ccc1N1CN(c2ccc(=O)[nH]c2)C(=O)c2ccc(C(F)(F)F)cc21 , please.
Output: 126 to 631 nM

Input: Recorded IC50 of CC(=O)Nc1ccc(N2CN(c3ccc(F)cc3C)c3cc(C(F)(F)F)ccc3C2=O)cc1 , please.
Output: 794 to 7940 nM

Input: Recorded IC50 of Cc1cc(F)ccc1N1CN(c2ccc(=O)[nH]c2C)C(=O)c2ccc(N(C)C)cc21 , please.
Output: ≤ 100 nM

Input: Recorded IC50 of Cc1[nH]c(=O)ccc1N1CN([C@@H]2CCCC[C@H]2C)c2cc(C(F)(F)F)ccc2C1=O [Example 280] , please.
Output: 126 to 631 nM
